Below, each entry is listed with its recorded pIC50.
SYSTEM: human Kv1.5 channels (Homo sapiens (Human), UniProt P22460)
Sequence (P22460 whole entry): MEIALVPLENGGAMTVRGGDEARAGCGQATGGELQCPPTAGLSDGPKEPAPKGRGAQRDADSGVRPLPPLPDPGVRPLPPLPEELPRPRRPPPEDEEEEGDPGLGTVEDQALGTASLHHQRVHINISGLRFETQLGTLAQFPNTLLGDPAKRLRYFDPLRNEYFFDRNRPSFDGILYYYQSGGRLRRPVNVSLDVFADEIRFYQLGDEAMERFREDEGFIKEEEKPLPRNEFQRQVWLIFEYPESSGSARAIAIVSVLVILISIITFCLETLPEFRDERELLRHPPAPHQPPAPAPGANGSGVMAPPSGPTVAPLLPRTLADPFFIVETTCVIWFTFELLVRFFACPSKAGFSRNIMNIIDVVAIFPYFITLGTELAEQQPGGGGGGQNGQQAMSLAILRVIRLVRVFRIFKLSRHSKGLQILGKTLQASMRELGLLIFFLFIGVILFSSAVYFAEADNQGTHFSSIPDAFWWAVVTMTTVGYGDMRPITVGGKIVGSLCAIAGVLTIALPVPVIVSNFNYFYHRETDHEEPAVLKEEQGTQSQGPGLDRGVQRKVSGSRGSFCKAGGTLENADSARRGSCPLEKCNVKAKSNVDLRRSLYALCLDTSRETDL
ASSAY COMMENT: Measurement of human Kv1.5 channel current by whole-cell patch clamp method (human Kv1.5-expressing CHO-K1 cell line), Pharmacological Test 1
ASSAY SETUP: First Invention, Table 2, human Kv1.5-expressing CHO-K1 cells, step end current at +40 mV
Counter-ions that a name gives are not always drawn.
# log scale: pIC50 equals minus log10 of the concentration in mol/L

>>> print(df.to_string())
                                   compound                                    system  assay_result
0  CCN1C(=O)C(C)(C)C(=O)N(C)c2cc(CN(CCn3ccc4oc(C)cc4c3=O)Cc3cccnc3COC)ccc21  human Kv1.5 channels (Homo sapiens (Human), UniProt P22460)          6.20

Tested on human Kv1.5 channels (Homo sapiens (Human), UniProt P22460), the item CCN1C(=O)C(C)(C)C(=O)N(C)c2cc(CN(CCn3cc(C)c4occc4c3=O)Cc3cccnc3COC)ccc21 showed pIC50 equal to 5.54

Tested on human Kv1.5 channels (Homo sapiens (Human), UniProt P22460), the item CCN1C(=O)C(C)(C)C(=O)N(C)c2cc(CN(CCc3cccnc3)C(=O)Cc3cn(C)c4ccccc34)ccc21 [Example 330, hydrochloride] showed pIC50 equal to 6.07
